- Test system: MOLT-4 leukemia
- method.notes: NCI tumour cell line growth inhibition, 48 h; in the data active = GI50 below about 0.43 µM; inactive = the rest
Classes to choose from: yes (1) for active, no (0) for inactive

molecule | class.label
C/C(=N\NC(=O)c1sc(=S)n(C)c1N)c1cc2ccccc2o1 | no (0)
O=C(NC1CCN(Cc2ccccc2)CC1)c1cc(-c2ccncc2)nc2ccc(Cl)cc12 | no (0)
COc1ccc(C2CC(c3cc(OC)c(OC)c(OC)c3)=NO2)cc1OCCCCOc1cc2c(cc1OC)C(=O)N1CCC[C@H]1C=N2 (stereo partly specified) | no (0)
CC(=O)NCCc1c2c(c3nccc4c3c1Nc1ccccc1-4)OCS2 | no (0)
COc1ccccc1NC(=O)c1sc2nc3c(cc2c1N)C(=O)CCC3 | no (0)

I'd appreciate the recorded outcome for CC12CCC3C(CCC4Cc5[nH]c6ccccc6c5CC43C)C1CCC2O (stereo unspecified) from this test.
no (0)

What call does the record list for Nc1c(C(=O)c2cccc(CCCN3CCOCC3)c2)cnn1-c1ccc(F)cc1 ?
no (0)

// outcome(item) with item = CCSCC1CC(O)(c2ccccc2)C(c2ccccc2)C(c2ccc(Cl)cc2)O1 (stereo unspecified)
no (0)

Outcome? CCNC(=O)[C@@H]1CCCN2C(=O)CC[C@H](NC(=O)[C@H](Cc3ccc(OP(=O)(O)O)cc3)NC(C)=O)C(=O)N12
no (0)

For this molecule, state the assay outcome: CCOC(=O)c1c2c(c(O)c3ccccc3c(O)n(Cc3ccc(OC)cc3)c1C)C(=O)C=CC2=O
no (0)

Status in this test for CC(=O)N[C@@H](Cc1ccc(OP(=O)(O)O)cc1)C(=O)N[C@H]1CCC(=O)N2CCC[C@@H](C(=O)NCc3ccc(Cl)cc3)N2C1=O ?
no (0)

Returns: the outcome recorded for Cc1cccc(NC(=O)CCc2ccc(N3C(N)=NC(N)=NC3(C)C)cc2)c1 in this assay.
no (0)
